The measurements presented in this section are drawn from paper PMC5540273.

system: TRKA; construct: gene NTRK1; details: concentration: 1 μM, replicates: in singlicate; n = 1;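 note: KINOMEscan kinase panel screen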
Parameter Measured: %Inh (%)

>  <Compound>
COc1ccc(-c2cc3c(C)nc(N)nc3n([C@H]3CC[C@H](OCCO)CC3)c2=O)cn1

>  <Experimental Result>
0

$$$$
>  <Compound>
COc1cc2nccc(Nc3cccc(Oc4ccccc4)c3)c2cc1OC.Cl

>  <Experimental Result>
34

$$$$
>  <Compound>
COc1cc2ncn(-c3cc(OCCCc4ccccc4)c(C(N)=O)s3)c2cc1OC

>  <Experimental Result>
55

$$$$
>  <Compound>
COc1cc2nccc(Nc3ccc(OCc4ccc(NC(C)=O)cc4)cc3)c2cc1OC.Cl

>  <Experimental Result>
37

$$$$
>  <Compound>
COc1ccc(Nc2nccc(N3CCC(NS(=O)(=O)c4ccc(NC(C)=O)cc4)C3)n2)cc1 (stereo not drawn)

>  <Experimental Result>
65

$$$$
>  <Compound>
COc1cccc(C2=C(N(C)c3ccccc3)C(=O)NC2=O)c1

>  <Experimental Result>
0

$$$$
>  <Compound>
COc1cccc(C2=C(Nc3cccc(C(=O)O)c3)C(=O)NC2=O)c1

>  <Experimental Result>
56

$$$$
>  <Compound>
COC(=O)c1c(-c2ccccc2)c2cc(Br)ccc2c(=O)n1Cc1ccc(NC(=O)CCC(=O)O)cc1

>  <Experimental Result>
0

$$$$
>  <Compound>
Cc1ccc(Oc2ccc(Nc3ncnc4cc[nH]c34)cc2C)cn1

>  <Experimental Result>
42

$$$$
>  <Compound>
CCCNC(=O)Nc1ccc(Oc2ncnc3ccn(C)c23)cc1

>  <Experimental Result>
0

$$$$
>  <Compound>
CCC(=O)c1c(-c2ccccc2)c2cc(Cl)ccc2c(=O)n1Cc1cc(S(C)(=O)=O)n(CC(F)F)n1

>  <Experimental Result>
0

$$$$
>  <Compound>
CCC(=O)c1c(-c2ccccc2)c2cc(Cl)ccc2c(=O)n1Cc1cc(S(C)(=O)=O)n(CC(N)=O)n1

>  <Experimental Result>
0

$$$$
